Reference source: ChEMBL document CHEMBL4689842

This listing pairs compounds with measured Total Cell Count.
# System: Fibroblast
# test description: Multiplex assay against human fibroblast
# Assay type: toxicity, cell-based
# experimental parameters: 12 h, 10 µM, compound concentration 10 uM, replicate 1
No unit in the answer, only the number.

CC(C)CC(=O)Nc1[nH]nc2c1CN(C(=O)C1CCN(C)CC1)C2(C)C :: 277

Enquiry: # query: Total Cell Count | item Cc1ccc2c(c1)c1c(n2CCc2ccc(C)nc2)CCN(C)C1 [LATREPIRDINE] | system: Fibroblast
Return: 148

Enquiry: Cool, now COC(=O)C1=C(C)NC(C)=C(C(=O)OCCCN2CCC(c3ccccc3)(c3ccccc3)CC2)[C@H]1c1cccc([N+](=O)[O-])c1
Return: 124

Enquiry: Cool, now C=CC(=O)Nc1cccc(Sc2nc(Nc3ccc(N4CCN(C)CC4)cc3)ncc2Cl)c1
Return: 290

Enquiry: Cool, now CCc1nn(CCCN2CCN(c3cccc(Cl)c3)CC2)c(=O)n1CCOc1ccccc1.Cl [NEFAZODONE HYDROCHLORIDE]
Return: 157

Enquiry: Cool, now CC(C)Oc1ccccc1C(=O)Nc1ccccc1C(=O)Nc1cccc(S(=O)(=O)C(F)(F)F)c1
Return: 137

Enquiry: Cool, now CC(C)OC(=O)N1CCC(Oc2ncnc3c2cnn3-c2ccc(S(C)(=O)=O)cc2F)CC1
Return: 164

Enquiry: Cool, now CC(C)(C)NC[C@H](O)COc1nsnc1N1CCOCC1
Return: 105

###

# Tested on: U2OS
# test description: Multiplex assay against U2OS
# Format: toxicity, cell-based
# experimental parameters: human, 12 h, 10 µM, compound concentration 10 uM, replicate 2
This listing pairs compounds with measured Population Normal (%).
Output spec: scalar in %, unitless text.

Sample answers from the record:
Cl.O=C(O)c1cc(-c2ccc(C3CCNCC3)cc2)c2ccc(-c3ccc(C(F)(F)F)cc3)cc2c1 :: 85
CCc1nn(CCCN2CCN(c3cccc(Cl)c3)CC2)c(=O)n1CCOc1ccccc1.Cl [NEFAZODONE HYDROCHLORIDE] :: 96
CC(C)c1noc(N2CCC(COc3ccc(-c4ccc(S(C)(=O)=O)cc4)nc3)CC2)n1 :: 94
CC(C)Oc1ccccc1C(=O)Nc1ccccc1C(=O)Nc1cccc(S(=O)(=O)C(F)(F)F)c1 :: 96
CC(C)CC(=O)Nc1[nH]nc2c1CN(C(=O)C1CCN(C)CC1)C2(C)C :: 85

Enquiry: Consider the compound COc1ccc(-c2ccc3ncc4c(c3c2)n(-c2ccc(N3CCNCC3)c(C(F)(F)F)c2)c(=O)n4C)cn1.O=C(O)/C=C\C(=O)O and give its measured Population Normal (%).
Return: 37

Enquiry: Cool, now COc1cc(Nc2nccc(-c3cnn4nc(OC)ccc34)n2)cc(C(F)(F)F)c1
Return: 65

Enquiry: Cool, now Cc1c[nH]c2nccc(Oc3c(F)cc(Nc4cc(Cl)nc(N)n4)cc3F)c12
Return: 93

Enquiry: Cool, now Cc1nc(N2CC[C@H](O)C2)ncc1-c1cc(C(F)(F)F)cc2[nH]ncc12
Return: 87

Enquiry: Cool, now Cc1ccccc1C(c1ccccc1C)N1C2CCC1CC(O)(c1ccccc1)C2 (stereo unspecified)
Return: 86

Enquiry: Cool, now CNC(=O)Nc1ccc2c(c1)[C@@]1(CC2)OC(=O)N(CC(=O)N(Cc2ccc(F)cc2)[C@@H](C)C(F)(F)F)C1=O
Return: 88

Enquiry: Cool, now O=c1[nH]c2ccccc2n1C1CCN(Cc2ccc(-c3[nH]c4cc5ncnc5cc4nc3-c3ccccc3)cc2)CC1
Return: 92

Enquiry: Cool, now CC1=C(C(=O)Nc2cc3cn[nH]c3cc2F)C(c2ccc(C(F)(F)F)cc2)CC(=O)N1 (stereo unspecified)
Return: 90

Enquiry: Cool, now CCCSc1nc(N[C@@H]2C[C@H]2c2ccc(F)c(F)c2)c2nnn([C@@H]3C[C@H](OCCO)[C@@H](O)[C@H]3O)c2n1
Return: 88

Enquiry: Cool, now COC(=O)C1=C(C)NC(C)=C(C(=O)OCCCN2CCC(c3ccccc3)(c3ccccc3)CC2)[C@H]1c1cccc([N+](=O)[O-])c1
Return: 87

Enquiry: Cool, now C=CC(=O)Nc1ccc2[nH]c(=O)n(C3CCN(Cc4ccc(-c5nc6cc[nH]c(=O)c6cc5-c5ccccc5)cc4)CC3)c2c1
Return: 91
